Tested on: MDA-MB-231
assay.protocol: Induction of apoptosis in human MDA-MB-231 cells assessed as viable cells at 10 uM incubated for 24 hrs by annexin V-FITC/propidium iodide staining based flow cytometry analysis (reference value: 96.5%)
Type: functional
recorded.conditions: read-out: Activity

compound: CC(=O)c1c(C)c2cnc(Nc3ccc(N4CCN(C(=O)/C(C#N)=C/c5ccccc5)CC4)cn3)nc2n(C2CCCC2)c1=O
viability at 10 µM (%): 36.5
--
compound: CC(=O)c1c(C)c2cnc(Nc3ccc(N4CCNCC4)cn3)nc2n(C2CCCC2)c1=O [PALBOCICLIB]
viability at 10 µM (%): 24.8
--
compound: CC(=O)c1c(C)c2cnc(Nc3ccc(N4CCN(C(=O)/C=C/C(F)(F)F)CC4)cn3)nc2n(C2CCCC2)c1=O
viability at 10 µM (%): 20.6
--
compound: C=CC(=O)N1CCN(c2ccc(Nc3ncc4c(C)c(C(C)=O)c(=O)n(C5CCCC5)c4n3)nc2)CC1
viability at 10 µM (%): 43.8

* * *

IC50 values by entry
Tested on: HepG2
assay.protocol: Antiproliferative activity against human HepG2 cells assessed as inhibition of cell growth incubated for 72 hrs by MTT assay
Format: functional, cell-based
recorded.conditions: HepG2, 72 h
recorded.metric: IC50

smiles.str: COc1cc(/C=C/C(=O)N2CCN(c3ccc(Nc4ncc5c(C)c(C(C)=O)c(=O)n(C6CCCC6)c5n4)nc3)CC2)ccc1O
measured.value: > 20 µM
//
smiles.str: CC(=O)c1c(C)c2cnc(Nc3ccc(N4CCNCC4)cn3)nc2n(C2CCCC2)c1=O
measured.value: 9.92 µM
//
smiles.str: COc1ccc(/C=C/C(=O)NCCCC(=O)N2CCN(c3ccc(Nc4ncc5c(C)c(C(C)=O)c(=O)n(C6CCCC6)c5n4)nc3)CC2)cc1OC
measured.value: 13.7 µM
//
smiles.str: CC(=O)c1c(C)c2cnc(Nc3ccc(N4CCN(C(=O)/C=C/c5ccccc5)CC4)cn3)nc2n(C2CCCC2)c1=O
measured.value: 11.9 µM
